The entries below come with measured pKi values attached.
experimental-system: USP1/UAF1 (Homo sapiens)
Sequence (O94782 whole entry): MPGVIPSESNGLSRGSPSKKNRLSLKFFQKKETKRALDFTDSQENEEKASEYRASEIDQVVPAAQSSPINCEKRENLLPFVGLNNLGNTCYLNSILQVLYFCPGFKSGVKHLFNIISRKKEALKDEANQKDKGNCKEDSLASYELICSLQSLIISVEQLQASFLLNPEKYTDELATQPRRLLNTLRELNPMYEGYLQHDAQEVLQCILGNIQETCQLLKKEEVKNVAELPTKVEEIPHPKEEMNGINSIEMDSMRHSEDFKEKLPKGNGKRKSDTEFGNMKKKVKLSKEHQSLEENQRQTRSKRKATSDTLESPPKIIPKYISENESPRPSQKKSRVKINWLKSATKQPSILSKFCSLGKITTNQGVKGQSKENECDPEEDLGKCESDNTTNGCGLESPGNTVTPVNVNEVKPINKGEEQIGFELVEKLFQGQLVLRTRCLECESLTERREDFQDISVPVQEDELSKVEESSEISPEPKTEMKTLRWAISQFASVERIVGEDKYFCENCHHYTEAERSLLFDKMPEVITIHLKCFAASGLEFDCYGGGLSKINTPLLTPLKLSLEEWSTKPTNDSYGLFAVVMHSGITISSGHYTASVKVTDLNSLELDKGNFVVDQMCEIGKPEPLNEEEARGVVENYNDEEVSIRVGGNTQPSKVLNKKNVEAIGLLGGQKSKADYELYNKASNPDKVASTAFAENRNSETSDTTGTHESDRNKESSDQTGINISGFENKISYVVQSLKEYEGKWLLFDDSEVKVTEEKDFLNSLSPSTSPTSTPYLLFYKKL
Sequence (Q8TAF3 whole entry, further chain): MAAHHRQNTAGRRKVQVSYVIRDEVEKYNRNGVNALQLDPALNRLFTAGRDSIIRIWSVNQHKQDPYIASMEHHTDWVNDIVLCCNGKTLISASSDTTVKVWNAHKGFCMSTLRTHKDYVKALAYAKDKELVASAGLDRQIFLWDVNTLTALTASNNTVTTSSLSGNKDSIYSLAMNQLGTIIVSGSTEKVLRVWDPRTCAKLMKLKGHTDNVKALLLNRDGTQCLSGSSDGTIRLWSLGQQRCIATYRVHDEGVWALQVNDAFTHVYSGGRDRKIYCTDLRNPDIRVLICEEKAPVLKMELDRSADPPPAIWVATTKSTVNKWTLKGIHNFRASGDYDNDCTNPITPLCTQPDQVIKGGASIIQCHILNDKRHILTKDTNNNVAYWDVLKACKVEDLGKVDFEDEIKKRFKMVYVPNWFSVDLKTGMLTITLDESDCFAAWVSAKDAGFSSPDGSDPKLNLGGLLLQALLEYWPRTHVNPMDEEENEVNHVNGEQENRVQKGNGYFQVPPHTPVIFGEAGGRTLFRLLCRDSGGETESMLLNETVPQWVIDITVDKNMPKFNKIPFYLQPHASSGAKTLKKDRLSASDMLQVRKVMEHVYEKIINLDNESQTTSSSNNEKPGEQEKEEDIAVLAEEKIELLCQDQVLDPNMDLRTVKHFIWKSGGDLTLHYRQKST
assay-overview: steady-state kinetics
Type: biochemical
pKi: −log10 of the molar value.

| compound | pKi |
| --- | --- |
| CC(C)(Sc1ccc(CCN(CCCCC2CCCCC2)C(=O)NC2CCCCC2)cc1)C(=O)O [GW7647] | 6.15 |
| O=c1[nH]c2ccccc2n1C1CCN(CCCC(c2ccc(F)cc2)c2ccc(F)cc2)CC1 [Pimozide, pimozide] | 6.30 |

---

experimental-system: caspase-1 (Homo sapiens)
Sequence (P29466 120-297 limits assumed): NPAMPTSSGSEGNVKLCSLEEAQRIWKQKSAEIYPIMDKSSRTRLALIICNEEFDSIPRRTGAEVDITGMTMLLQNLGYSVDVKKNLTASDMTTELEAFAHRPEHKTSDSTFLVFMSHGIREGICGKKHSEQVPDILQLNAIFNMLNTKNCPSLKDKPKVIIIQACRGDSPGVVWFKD
Sequence (P29466 317-404 limits assumed): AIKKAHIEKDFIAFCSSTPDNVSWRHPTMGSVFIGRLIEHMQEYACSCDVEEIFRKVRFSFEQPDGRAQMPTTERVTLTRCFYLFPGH

| compound | IC50 |
| --- | --- |
| OCCN1CCN(CCC=C2c3ccccc3Sc3ccc(C(F)(F)F)cc32)CC1 | > 250 µM |
| CC(=O)c1c(O)c(C)c(O)c(Cc2c(O)c3c(c(C(=O)/C=C/c4ccccc4)c2O)OC(C)(C)C=C3)c1O | 5 to 45 µM |
| CN1CCN(CCCN2c3ccccc3Sc3ccc(C(F)(F)F)cc32)CC1 | > 250 µM |
| O=c1[nH]c2ccccc2n1C1CCN(CCCC(c2ccc(F)cc2)c2ccc(F)cc2)CC1 [Pimozide, pimozide] | > 250 µM |
| CC(C)(Sc1ccc(CCN(CCCCC2CCCCC2)C(=O)NC2CCCCC2)cc1)C(=O)O | 42 µM |

---

experimental-system: USP5 (Homo sapiens)
assay-overview: K63-linked diubiquitin cleavage assay, USP5
condition-description: K63-linked diubiquitin substrate; NI = no significant inhibition at 114 μM

| smiles-string | IC50 USP5 |
| --- | --- |
| OCCN1CCN(CCC=C2c3ccccc3Sc3ccc(C(F)(F)F)cc32)CC1 | no inhibition |
| CN1CCN(CCCN2c3ccccc3Sc3ccc(C(F)(F)F)cc32)CC1 | no inhibition |

---

experimental-system: papain (Carica papaya)
Sequence (P00784 134-345): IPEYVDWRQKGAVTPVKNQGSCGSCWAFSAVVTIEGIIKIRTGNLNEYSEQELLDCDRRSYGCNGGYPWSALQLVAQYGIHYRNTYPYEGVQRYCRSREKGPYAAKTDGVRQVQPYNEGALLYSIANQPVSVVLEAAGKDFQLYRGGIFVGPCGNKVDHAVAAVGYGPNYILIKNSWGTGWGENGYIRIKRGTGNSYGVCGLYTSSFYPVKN
The entries below come with measured IC50 values attached.
value-type: IC50

| compound | value-type | measured-value |
| --- | --- | --- |
| CC(C)(Sc1ccc(CCN(CCCCC2CCCCC2)C(=O)NC2CCCCC2)cc1)C(=O)O | IC50 | ~130 µM |
| O=c1[nH]c2ccccc2n1C1CCN(CCCC(c2ccc(F)cc2)c2ccc(F)cc2)CC1 [Pimozide, pimozide] | IC50 | > 250 µM |
| CC(=O)c1c(O)c(C)c(O)c(Cc2c(O)c3c(c(C(=O)/C=C/c4ccccc4)c2O)OC(C)(C)C=C3)c1O | IC50 | 5 to 45 µM |
| CN1CCN(CCCN2c3ccccc3Sc3ccc(C(F)(F)F)cc32)CC1 | IC50 | ~130 µM |
| OCCN1CCN(CCC=C2c3ccccc3Sc3ccc(C(F)(F)F)cc32)CC1 | IC50 | > 250 µM |

---

experimental-system: USP46/UAF1 (Homo sapiens)
Sequence (P62068 whole entry): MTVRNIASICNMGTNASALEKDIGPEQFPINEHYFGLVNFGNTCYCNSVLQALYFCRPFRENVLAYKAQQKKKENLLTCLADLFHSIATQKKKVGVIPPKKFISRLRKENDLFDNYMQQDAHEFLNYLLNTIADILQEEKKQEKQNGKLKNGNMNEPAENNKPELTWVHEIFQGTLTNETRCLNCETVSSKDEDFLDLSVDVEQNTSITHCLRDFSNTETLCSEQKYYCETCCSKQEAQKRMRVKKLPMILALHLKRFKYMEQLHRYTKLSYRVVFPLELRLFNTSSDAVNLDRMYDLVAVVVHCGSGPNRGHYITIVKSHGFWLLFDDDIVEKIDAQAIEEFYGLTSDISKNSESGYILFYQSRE
Sequence (Q8TAF3 whole entry partner): as the sequence (Q8TAF3 whole entry, further chain) above
assay-overview: K63-linked diubiquitin cleavage assay, USP46/UAF1
value-type: IC50 (µM)

| smiles-string | experimental-system | measured-value |
| --- | --- | --- |
| CC(=O)c1c(O)c(C)c(O)c(Cc2c(O)c3c(c(C(=O)/C=C/c4ccccc4)c2O)OC(C)(C)C=C3)c1O | USP46/UAF1 (Homo sapiens) | 15 |
| CC(C)(Sc1ccc(CCN(CCCCC2CCCCC2)C(=O)NC2CCCCC2)cc1)C(=O)O | USP46/UAF1 (Homo sapiens) | 12 |

---

The entries below come with measured IC50 values attached.
experimental-system: UCH-L1 (Homo sapiens)
Sequence (P09936 whole entry): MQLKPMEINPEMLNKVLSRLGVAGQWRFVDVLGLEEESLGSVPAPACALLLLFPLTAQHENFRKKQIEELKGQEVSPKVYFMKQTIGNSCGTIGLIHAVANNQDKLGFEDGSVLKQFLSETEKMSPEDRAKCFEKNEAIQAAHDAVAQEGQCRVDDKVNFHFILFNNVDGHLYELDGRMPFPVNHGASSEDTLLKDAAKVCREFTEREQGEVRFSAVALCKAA

| compound | IC50 |
| --- | --- |
| O=c1[nH]c2ccccc2n1C1CCN(CCCC(c2ccc(F)cc2)c2ccc(F)cc2)CC1 [Pimozide, pimozide] | > 500 µM |
| OCCN1CCN(CCC=C2c3ccccc3Sc3ccc(C(F)(F)F)cc32)CC1 | > 500 µM |
| CN1CCN(CCCN2c3ccccc3Sc3ccc(C(F)(F)F)cc32)CC1 | > 500 µM |
| CC(C)(Sc1ccc(CCN(CCCCC2CCCCC2)C(=O)NC2CCCCC2)cc1)C(=O)O | > 200 µM |

---

experimental-system: UniProt:P40818
Sequence (P40818 whole entry): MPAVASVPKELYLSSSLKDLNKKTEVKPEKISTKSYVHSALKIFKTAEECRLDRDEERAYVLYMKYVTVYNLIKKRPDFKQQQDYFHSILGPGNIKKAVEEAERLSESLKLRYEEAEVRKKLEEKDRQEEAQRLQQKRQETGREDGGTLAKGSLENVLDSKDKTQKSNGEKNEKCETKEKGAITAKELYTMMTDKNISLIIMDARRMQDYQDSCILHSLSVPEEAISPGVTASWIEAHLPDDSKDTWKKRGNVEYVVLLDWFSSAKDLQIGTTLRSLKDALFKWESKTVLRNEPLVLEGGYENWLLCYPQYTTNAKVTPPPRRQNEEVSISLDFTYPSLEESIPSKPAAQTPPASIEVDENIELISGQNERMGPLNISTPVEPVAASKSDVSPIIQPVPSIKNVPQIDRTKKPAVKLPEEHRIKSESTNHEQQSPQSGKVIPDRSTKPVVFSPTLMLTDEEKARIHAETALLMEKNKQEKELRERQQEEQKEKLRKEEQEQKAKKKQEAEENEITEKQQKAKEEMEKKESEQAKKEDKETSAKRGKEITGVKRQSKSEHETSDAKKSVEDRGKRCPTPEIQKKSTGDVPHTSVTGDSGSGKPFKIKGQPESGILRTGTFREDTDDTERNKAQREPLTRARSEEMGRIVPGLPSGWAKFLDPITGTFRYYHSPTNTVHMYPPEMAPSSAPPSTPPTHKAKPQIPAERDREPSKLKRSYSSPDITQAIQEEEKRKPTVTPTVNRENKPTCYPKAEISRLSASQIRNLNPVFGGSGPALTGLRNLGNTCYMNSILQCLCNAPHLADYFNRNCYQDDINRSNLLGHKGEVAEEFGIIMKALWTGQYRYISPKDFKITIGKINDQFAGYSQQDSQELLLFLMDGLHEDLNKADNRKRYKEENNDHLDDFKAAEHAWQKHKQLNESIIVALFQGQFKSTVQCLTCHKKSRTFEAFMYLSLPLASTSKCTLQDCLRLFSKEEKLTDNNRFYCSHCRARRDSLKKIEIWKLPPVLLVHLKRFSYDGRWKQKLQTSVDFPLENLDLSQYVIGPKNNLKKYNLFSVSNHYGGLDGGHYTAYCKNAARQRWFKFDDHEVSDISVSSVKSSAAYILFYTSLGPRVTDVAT

| smiles-string | IC50 |
| --- | --- |
| OCCN1CCN(CCC=C2c3ccccc3Sc3ccc(C(F)(F)F)cc32)CC1 | > 114 µM |

---

Notes on IC50 obtained with UCH-L3 (Homo sapiens, UniProt P15374).
Sequence (P15374 whole entry): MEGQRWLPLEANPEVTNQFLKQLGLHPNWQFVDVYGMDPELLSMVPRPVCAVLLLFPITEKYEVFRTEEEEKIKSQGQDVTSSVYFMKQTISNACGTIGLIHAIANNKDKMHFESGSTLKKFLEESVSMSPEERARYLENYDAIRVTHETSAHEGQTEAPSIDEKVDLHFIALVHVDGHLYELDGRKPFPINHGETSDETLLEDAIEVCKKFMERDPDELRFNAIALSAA
value-type: IC50

| compound | experimental-system | value-type | measured-value |
| --- | --- | --- | --- |
| CC(C)(Sc1ccc(CCN(CCCCC2CCCCC2)C(=O)NC2CCCCC2)cc1)C(=O)O | UCH-L3 (Homo sapiens, UniProt P15374) | IC50 | > 200 µM |
| OCCN1CCN(CCC=C2c3ccccc3Sc3ccc(C(F)(F)F)cc32)CC1 | UCH-L3 (Homo sapiens, UniProt P15374) | IC50 | > 500 µM |
| O=c1[nH]c2ccccc2n1C1CCN(CCCC(c2ccc(F)cc2)c2ccc(F)cc2)CC1 [Pimozide, pimozide] | UCH-L3 (Homo sapiens, UniProt P15374) | IC50 | > 500 µM |
| CN1CCN(CCCN2c3ccccc3Sc3ccc(C(F)(F)F)cc32)CC1 | UCH-L3 (Homo sapiens, UniProt P15374) | IC50 | > 500 µM |

---

experimental-system: UniProt P45974
Sequence (P45974 1-858): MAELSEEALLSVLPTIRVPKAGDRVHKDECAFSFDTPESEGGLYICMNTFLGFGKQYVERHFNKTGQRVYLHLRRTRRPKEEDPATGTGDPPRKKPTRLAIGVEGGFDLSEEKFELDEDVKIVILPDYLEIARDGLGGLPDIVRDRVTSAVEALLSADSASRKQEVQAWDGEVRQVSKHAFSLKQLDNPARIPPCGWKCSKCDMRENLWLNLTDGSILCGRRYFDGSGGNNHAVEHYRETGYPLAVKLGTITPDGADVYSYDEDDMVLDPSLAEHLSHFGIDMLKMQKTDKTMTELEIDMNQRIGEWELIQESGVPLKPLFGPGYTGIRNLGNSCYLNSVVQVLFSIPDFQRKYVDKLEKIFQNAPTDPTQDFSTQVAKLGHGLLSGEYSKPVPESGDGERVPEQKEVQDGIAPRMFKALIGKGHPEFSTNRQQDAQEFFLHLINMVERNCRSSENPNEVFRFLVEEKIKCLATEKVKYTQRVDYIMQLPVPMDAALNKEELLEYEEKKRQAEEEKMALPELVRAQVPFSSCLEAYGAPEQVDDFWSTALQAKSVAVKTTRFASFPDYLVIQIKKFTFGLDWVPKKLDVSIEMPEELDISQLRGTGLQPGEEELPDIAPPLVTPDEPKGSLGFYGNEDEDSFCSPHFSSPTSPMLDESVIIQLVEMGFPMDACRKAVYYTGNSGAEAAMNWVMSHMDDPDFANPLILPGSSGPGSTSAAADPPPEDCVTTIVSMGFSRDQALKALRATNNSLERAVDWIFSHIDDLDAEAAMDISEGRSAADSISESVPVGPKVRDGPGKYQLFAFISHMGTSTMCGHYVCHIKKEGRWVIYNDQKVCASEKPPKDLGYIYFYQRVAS
pIC50: −log10 of the molar value.

| smiles-string | pIC50 |
| --- | --- |
| CC(=O)c1c(O)c(C)c(O)c(Cc2c(O)c3c(c(C(=O)/C=C/c4ccccc4)c2O)OC(C)(C)C=C3)c1O | < 3.94 |

---

Notes on IC50 obtained with USP7 (Homo sapiens).
Sequence (Q93009 whole entry): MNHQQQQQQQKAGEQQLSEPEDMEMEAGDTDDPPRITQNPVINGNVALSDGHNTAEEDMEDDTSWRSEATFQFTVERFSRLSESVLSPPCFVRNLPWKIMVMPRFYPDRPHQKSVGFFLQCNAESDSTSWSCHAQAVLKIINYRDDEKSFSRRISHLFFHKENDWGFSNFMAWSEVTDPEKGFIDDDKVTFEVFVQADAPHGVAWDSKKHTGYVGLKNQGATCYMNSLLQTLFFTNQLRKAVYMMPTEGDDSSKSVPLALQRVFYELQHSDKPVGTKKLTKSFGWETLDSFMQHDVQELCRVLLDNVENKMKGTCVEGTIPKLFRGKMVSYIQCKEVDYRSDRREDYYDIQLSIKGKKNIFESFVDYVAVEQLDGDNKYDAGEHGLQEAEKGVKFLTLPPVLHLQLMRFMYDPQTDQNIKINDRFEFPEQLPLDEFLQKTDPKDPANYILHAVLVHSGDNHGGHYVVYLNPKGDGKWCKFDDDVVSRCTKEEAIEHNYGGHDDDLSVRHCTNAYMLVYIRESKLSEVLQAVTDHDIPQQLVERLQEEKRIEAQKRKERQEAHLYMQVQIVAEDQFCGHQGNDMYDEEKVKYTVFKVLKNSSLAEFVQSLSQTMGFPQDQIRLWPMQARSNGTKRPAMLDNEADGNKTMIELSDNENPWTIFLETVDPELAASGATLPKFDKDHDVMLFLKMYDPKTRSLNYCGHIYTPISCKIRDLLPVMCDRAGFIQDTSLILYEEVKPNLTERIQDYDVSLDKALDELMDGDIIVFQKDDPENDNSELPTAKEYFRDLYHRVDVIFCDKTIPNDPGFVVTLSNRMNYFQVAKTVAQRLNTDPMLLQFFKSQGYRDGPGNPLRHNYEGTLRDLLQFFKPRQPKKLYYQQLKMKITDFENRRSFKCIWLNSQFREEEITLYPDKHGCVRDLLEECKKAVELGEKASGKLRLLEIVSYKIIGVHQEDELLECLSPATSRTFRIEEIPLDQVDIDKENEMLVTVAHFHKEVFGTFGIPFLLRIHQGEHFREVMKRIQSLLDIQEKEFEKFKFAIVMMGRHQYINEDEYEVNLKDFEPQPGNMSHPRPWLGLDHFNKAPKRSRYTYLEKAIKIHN

| molecule | display-unit | IC50 |
| --- | --- | --- |
| CN1CCN(CCCN2c3ccccc3Sc3ccc(C(F)(F)F)cc32)CC1 | µM | 9 |
| OCCN1CCN(CCC=C2c3ccccc3Sc3ccc(C(F)(F)F)cc32)CC1 | µM | 13 |
| CC(C)(Sc1ccc(CCN(CCCCC2CCCCC2)C(=O)NC2CCCCC2)cc1)C(=O)O | µM | 44 |
| O=c1[nH]c2ccccc2n1C1CCN(CCCC(c2ccc(F)cc2)c2ccc(F)cc2)CC1 [Pimozide, pimozide] | µM | 47 |
